target.desc: human IL-17AA (Homo sapiens)
Sequence (Q16552 24-155): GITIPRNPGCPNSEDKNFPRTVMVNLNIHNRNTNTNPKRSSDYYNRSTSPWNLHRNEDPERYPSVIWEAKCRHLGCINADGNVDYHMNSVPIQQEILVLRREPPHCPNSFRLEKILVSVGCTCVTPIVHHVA
Sequence (Q16552 24-155): as above
measurement.notes: IL-8 release assay in human epithelial keratinocytes adult (HEKa)
applied.conditions: 3 ng/ml human IL-17AA + 10 ng/ml human TNFalpha, 68-72 h, IL-8 by HTRF, read-out: Rel EC50 L-8 release assay
Protocol: Example: IL-8 release assay in human epithelial keratinocytes adult (HEKa) Keratinocytes were seeded at 3500 cells/well in 384-well ViewPlates (Perkin Elmer) in Epilife medium (Thermo Fisher) containing human keratinocyte growth supplement (HKGS) without hydrocortisone and incubated in a humid incubator at 37° C., 5% CO2, overnight. […] for test compounds, by the use of acoustic pipetting. […] Cytotoxicity was measured in the cell-containing […]
pEC50: −log10 of the molar value.
Hi there, I'd appreciate the recorded pEC50 for every entry that follows.

Consider the following illustrative entries.
>>> result("Cc1n[nH]c(C)c1-c1ccc(NC(=O)[C@@H](NC(=O)C2(F)CC2)[C@@H]2CCCc3ccc(-c4cc(C)c(=O)n(C(C)C)c4)cc32)cc1")
"> 7.00"
>>> result("CC(C)n1cc(-c2ccc(Cl)c(C[C@H](NC(=O)c3ccnn3C)C(=O)Nc3ccc(-c4cn[nH]c4)c(O)c3)c2)ccc1=O")
"> 7.00"
>>> result("Cn1cncc1-c1ccc(NC(=O)C(Cc2cc(-c3ccnc(N4CCCCC4)c3)ccc2Cl)NC(=O)c2ccnn2C)cc1 (stereo not shown)")
"6.00 to 7.00"
>>> result("Cc1n[nH]c(C)c1-c1ccc(NC(=O)[C@@H](NC(=O)c2ccnn2C)[C@@H]2CCc3ccc(-c4ccc(CN5CCOCC5)cc4)cc32)cc1")
"> 7.00"
>>> result("Cn1cncc1-c1ccc(NC(=O)C(Cc2cc(-c3cccc(C(C)(C)N)c3)ccc2Cl)NC(=O)c2ccnn2C)cc1 (stereo not shown)")
"> 7.00"
>>> result("Cc1nocc1C(=O)N[C@@H](Cc1cc(-c2ccc(=O)n(C(C)C)c2)ccc1Cl)C(=O)Nc1ccc(-c2ccnn2C)c(O)c1")
"> 7.00"
>>> result("Cc1n[nH]c(C)c1-c1ccc(NC(=O)[C@H](Cc2cc(-c3ccnc(N4CCSCC4)n3)ccc2Cl)NC(=O)C2(F)CC2)cc1")
"> 7.00"
>>> result("Cn1cnnc1-c1ccc(NC(=O)C(Cc2cc(-c3cccc(OC(F)F)c3)ccc2Cl)NC(=O)c2ccnn2C)cc1 (stereo not shown)")
"6.00 to 7.00"

Field: pEC50. Fill in for each record below.
1. Cc1nocc1C(=O)N[C@@H](Cc1cc(-c2ccnc(C(=O)C(C)(C)C)c2)ccc1Cl)C(=O)Nc1ccc(-c2nncn2C)cc1
2. CC(C)n1cc(-c2ccc(Cl)c(C[C@H](NC(=O)OC(C)(C)C)C(=O)Nc3ccc(-c4cncn4C)c(F)c3)c2)ccc1=O
3. CC(C)n1cc(-c2ccc(Cl)c(C[C@H](NC(=O)C3(F)CCC3)C(=O)Nc3ccc(-c4cncn4C)cc3)c2)ccc1=O
4. Cc1cnn(C)c1-c1ccc(NC(=O)[C@@H](NC(=O)C2(F)CC2)[C@@H]2CCCc3ccc(-c4ccnc(N5C[C@@H]6C[C@H]5CN6)c4)cc32)cc1
5. Cc1n[nH]c(C)c1-c1ccc(NC(=O)[C@@H](NC(=O)C2(F)CC2)[C@@H]2CCc3ccc(-c4ccc(=O)n(C(C)C)c4)cc32)cc1 [Example 7]

6.00 to 7.00
6.00 to 7.00
6.00 to 7.00
6.00 to 7.00
> 7.00
